// provenance: patent US11279730B2

Catalogue of Emax readings, one per entry.
# MEASUREMENT TARGET: GlunN1/GluN2A glutamate receptors (Homo sapiens, UniProt Q05586+Q12879)
# Construct: expressed in transfected cells
# Sequence (Q12879 23-1464, other chains not shown): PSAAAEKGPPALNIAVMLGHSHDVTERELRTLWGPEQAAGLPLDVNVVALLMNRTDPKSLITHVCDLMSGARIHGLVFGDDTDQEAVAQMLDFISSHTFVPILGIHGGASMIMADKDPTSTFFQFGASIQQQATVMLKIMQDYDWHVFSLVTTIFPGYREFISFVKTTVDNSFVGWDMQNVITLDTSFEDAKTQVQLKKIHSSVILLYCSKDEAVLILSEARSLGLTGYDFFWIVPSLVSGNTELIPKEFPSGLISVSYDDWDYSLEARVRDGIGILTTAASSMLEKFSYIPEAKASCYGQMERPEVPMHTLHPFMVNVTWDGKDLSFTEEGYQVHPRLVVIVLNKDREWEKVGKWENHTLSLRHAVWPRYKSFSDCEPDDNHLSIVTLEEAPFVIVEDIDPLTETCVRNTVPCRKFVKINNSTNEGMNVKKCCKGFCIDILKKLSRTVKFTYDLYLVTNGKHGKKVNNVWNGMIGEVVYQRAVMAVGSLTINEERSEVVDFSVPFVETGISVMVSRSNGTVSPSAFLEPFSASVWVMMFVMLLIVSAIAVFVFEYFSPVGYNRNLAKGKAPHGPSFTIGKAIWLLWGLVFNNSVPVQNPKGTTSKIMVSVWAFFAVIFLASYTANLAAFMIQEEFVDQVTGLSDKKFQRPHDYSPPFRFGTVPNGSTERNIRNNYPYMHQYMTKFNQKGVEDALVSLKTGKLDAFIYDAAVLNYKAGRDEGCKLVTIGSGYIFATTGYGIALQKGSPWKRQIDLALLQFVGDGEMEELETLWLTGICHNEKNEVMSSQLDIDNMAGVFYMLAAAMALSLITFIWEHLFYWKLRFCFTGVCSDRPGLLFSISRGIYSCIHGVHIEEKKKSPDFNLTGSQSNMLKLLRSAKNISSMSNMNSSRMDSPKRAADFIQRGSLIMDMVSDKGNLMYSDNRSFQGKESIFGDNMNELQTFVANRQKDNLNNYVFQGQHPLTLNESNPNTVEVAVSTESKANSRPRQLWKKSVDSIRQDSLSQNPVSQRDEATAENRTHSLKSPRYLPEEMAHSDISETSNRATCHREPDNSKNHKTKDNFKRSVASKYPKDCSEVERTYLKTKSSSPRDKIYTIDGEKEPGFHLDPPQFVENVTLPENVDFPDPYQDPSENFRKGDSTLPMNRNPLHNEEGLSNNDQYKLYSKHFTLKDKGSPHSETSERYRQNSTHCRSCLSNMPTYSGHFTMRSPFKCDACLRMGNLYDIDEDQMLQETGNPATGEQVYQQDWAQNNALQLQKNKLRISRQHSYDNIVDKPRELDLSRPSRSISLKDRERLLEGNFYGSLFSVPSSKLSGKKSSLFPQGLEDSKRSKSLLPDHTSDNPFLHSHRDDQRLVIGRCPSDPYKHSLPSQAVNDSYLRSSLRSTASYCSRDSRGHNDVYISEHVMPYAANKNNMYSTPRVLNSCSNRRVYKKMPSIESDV
# TEST METHOD NOTES: Whole-cell patch clamp of mammalian cells (Ionworks Barracuda, IWB), NMDA potentiation (PAM), GluN2A
# Format: cell-based
# ASSAY CONDITIONS: peak current amplitude; maximal potentiation; read-out: GluN2A PCA Emax (%)

# count of solved cases: 2
MOLECULE	MEASUREMENT TARGET	Emax
CC[C@]1(O)CC[C@@]2(C)C(=CC[C@H]3[C@@H]4CC[C@H]([C@H](C)CC[C@H](O)C(C)C)[C@@]4(C)CC(=O)[C@@H]32)C1 [Compound 7]	GlunN1/GluN2A glutamate receptors (Homo sapiens, UniProt Q05586+Q12879)	100 to 500%
CC[C@]1(O)CC[C@@]2(C)C(=CC[C@H]3[C@@H]4CC[C@H]([C@H](C)CC[C@@H](O)C(C)(C)C)[C@@]4(C)CC(=O)[C@@H]32)C1 [Compound 10]	GlunN1/GluN2A glutamate receptors (Homo sapiens, UniProt Q05586+Q12879)	> 500%

Next:
Emax reading for C[C@H](CCC(C)(C)O)[C@H]1CC[C@H]2[C@@H]3CC[C@H]4C[C@@](C)(O)CC[C@]4(C)[C@H]3C(=O)C[C@]12C [Compound 1] : 100 to 500%

====

Catalogue of pEC50 readings, one per entry.
# MEASUREMENT TARGET: GluN2B glutamate receptors (Homo sapiens, UniProt Q05586+Q13224)
# Sequence (Q13224 27-1484, other chains not shown): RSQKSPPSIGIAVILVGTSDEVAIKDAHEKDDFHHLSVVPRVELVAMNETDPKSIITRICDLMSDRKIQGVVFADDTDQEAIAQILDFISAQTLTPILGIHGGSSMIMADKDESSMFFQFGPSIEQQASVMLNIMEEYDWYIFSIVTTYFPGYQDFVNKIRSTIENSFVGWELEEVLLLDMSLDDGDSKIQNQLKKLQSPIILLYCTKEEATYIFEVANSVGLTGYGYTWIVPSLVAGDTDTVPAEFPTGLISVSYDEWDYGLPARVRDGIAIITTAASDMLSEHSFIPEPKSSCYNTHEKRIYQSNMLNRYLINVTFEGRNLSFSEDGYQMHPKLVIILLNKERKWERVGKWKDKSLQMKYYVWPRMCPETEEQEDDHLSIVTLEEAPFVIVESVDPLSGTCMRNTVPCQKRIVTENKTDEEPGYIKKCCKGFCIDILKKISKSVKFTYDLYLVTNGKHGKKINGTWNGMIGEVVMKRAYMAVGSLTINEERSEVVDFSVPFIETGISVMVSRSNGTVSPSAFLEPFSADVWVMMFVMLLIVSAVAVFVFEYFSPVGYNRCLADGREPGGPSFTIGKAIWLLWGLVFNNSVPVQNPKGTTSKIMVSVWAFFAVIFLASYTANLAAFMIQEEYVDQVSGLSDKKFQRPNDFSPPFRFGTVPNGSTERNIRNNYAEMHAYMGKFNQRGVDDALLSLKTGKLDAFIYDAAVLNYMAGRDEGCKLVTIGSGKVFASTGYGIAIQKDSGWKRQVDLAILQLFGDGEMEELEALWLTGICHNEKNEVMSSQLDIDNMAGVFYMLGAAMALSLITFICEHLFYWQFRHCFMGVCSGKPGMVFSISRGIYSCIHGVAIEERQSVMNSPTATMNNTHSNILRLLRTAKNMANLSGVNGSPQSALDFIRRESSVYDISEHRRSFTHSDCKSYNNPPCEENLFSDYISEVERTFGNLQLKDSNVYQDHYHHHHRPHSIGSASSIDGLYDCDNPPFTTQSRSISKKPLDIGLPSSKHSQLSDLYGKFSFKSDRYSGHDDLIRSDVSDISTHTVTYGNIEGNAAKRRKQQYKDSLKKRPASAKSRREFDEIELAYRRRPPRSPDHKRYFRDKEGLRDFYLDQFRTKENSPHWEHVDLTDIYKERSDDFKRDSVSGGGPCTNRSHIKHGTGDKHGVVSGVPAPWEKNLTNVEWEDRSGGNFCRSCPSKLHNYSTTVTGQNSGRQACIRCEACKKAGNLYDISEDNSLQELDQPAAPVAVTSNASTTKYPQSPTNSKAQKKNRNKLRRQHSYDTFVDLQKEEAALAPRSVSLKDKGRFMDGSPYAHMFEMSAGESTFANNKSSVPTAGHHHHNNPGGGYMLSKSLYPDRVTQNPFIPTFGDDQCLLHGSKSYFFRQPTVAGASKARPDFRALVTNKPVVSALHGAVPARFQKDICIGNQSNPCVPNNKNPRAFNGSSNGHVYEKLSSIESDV
# TEST METHOD NOTES: Whole-cell patch clamp of mammalian cells (Ionworks Barracuda, IWB), NMDA potentiation (PAM), GluN2B
# ASSAY CONDITIONS: peak current amplitude; 8-point concentration-response; read-out: GluN2B PCA EC50
pEC50: −log10 of the molar value.

MOLECULE	RESULT
CC[C@]1(O)CC[C@@]2(C)C(=CC[C@H]3[C@@H]4CC[C@H]([C@H](C)CC[C@H](O)C(C)C)[C@@]4(C)CC(=O)[C@@H]32)C1 [Compound 7]	7.00 to 9.00
CC[C@]1(O)CC[C@@]2(C)C(=CC[C@H]3[C@@H]4CC[C@H]([C@H](C)CC[C@@H](O)C(C)(C)C)[C@@]4(C)CC(=O)[C@@H]32)C1 [Compound 10]	7.00 to 9.00

Next:
pEC50 reading for C[C@H](CCC(C)(C)O)[C@H]1CC[C@H]2[C@@H]3CC=C4C[C@@](C)(O)CC[C@]4(C)[C@H]3C(C)(O)C[C@]12C (stereo partly drawn) [Compound 11] : 5.00 to 6.00

====

Catalogue of EC50 readings, one per entry.
# MEASUREMENT TARGET: GlunN1/GluN2A glutamate receptors (Homo sapiens, UniProt Q05586+Q12879)
# TEST METHOD NOTES: Whole-cell patch clamp of mammalian cells (Ionworks Barracuda, IWB), NMDA potentiation (PAM), GluN2A
# ASSAY CONDITIONS: peak current amplitude; 8-point concentration-response; read-out: GluN2A PCA EC50

CC[C@]1(O)CC[C@@]2(C)C(=CC[C@H]3[C@@H]4CC[C@H]([C@H](C)CCC(C)(C)O)[C@@]4(C)CC(=O)[C@@H]32)C1 100 to 500 nM
C[C@H](CCC(C)(C)O)[C@H]1CC[C@H]2[C@@H]3CC=C4C[C@@H](O)CC[C@]4(C)[C@H]3[C@@H](O)C[C@]12C ≥ 10000 nM
C[C@H](CCC(C)(C)O)[C@H]1CC[C@H]2[C@@H]3CC=C4C[C@@H](O)CC[C@]4(C)[C@H]3C(=O)C[C@]12C 100 to 500 nM

Next:
EC50 reading for `CC[C@]1(O)CC[C@@]2(C)C(=CC[C@H]3[C@@H]4CC[C@H]([C@H](C)CC[C@H](O)C(C)C)[C@@]4(C)CC(=O)[C@@H]32)C1` : 1 to 100 nM

====

# MEASUREMENT TARGET: GlunN1/GluN2A glutamate receptors (Homo sapiens, UniProt Q05586+Q12879)
# Construct: expressed in transfected cells
# TEST METHOD NOTES: Whole-cell patch clamp of mammalian cells (Ionworks Barracuda, IWB), NMDA potentiation (PAM), GluN2A
# Type: cell-based
# ASSAY CONDITIONS: peak current amplitude; maximal potentiation; read-out: GluN2A PCA Emax (%)
Catalogue of Emax readings, one per entry.

MOLECULE	Emax
CC[C@]1(O)CC[C@@]2(C)C(=CC[C@H]3[C@@H]4CC[C@H]([C@H](C)CC[C@H](O)C(C)(C)C)[C@@]4(C)CC(=O)[C@@H]32)C1 [Compound 9]	> 500%
CC[C@]1(O)CC[C@@]2(C)C(=CC[C@H]3[C@@H]4CC[C@H]([C@H](C)CCC(C)(C)O)[C@@]4(C)CC(=O)[C@@H]32)C1 [Compound 5]	100 to 500%
C[C@H](CCC(C)(C)O)[C@H]1CC[C@H]2[C@@H]3CC=C4C[C@@H](O)CC[C@]4(C)[C@H]3C(=O)C[C@]12C [Compound 4]	100 to 500%
C[C@H](CCC(C)(C)O)[C@H]1CC[C@H]2[C@@H]3CC[C@H]4C[C@@H](O)CC[C@]4(C)[C@H]3C(=O)C[C@]12C [Compound 2]	< 100%
C[C@H](CCC(C)(C)O)[C@H]1CC[C@H]2[C@@H]3CC=C4C[C@@](C)(O)CC[C@]4(C)[C@H]3C(C)(O)C[C@]12C (stereo partly shown) [Compound 11]	100 to 500%
CC[C@]1(O)CC[C@@]2(C)C(=CC[C@H]3[C@@H]4CC[C@H]([C@H](C)CC[C@@H](O)C(C)C)[C@@]4(C)CC(=O)[C@@H]32)C1 [Compound 6]	100 to 500%

Next:
Emax reading for C[C@H](CCC(C)(C)O)[C@H]1CC[C@H]2[C@@H]3CC=C4C[C@@H](O)CC[C@]4(C)[C@H]3[C@@H](O)C[C@]12C [Compound 3] : < 100%

====

# MEASUREMENT TARGET: GluN2B glutamate receptors (Homo sapiens, UniProt Q05586+Q13224)
# Construct: expressed in transfected cells
# TEST METHOD NOTES: Whole-cell patch clamp of mammalian cells (Ionworks Barracuda, IWB), NMDA potentiation (PAM), GluN2B
# Format: cell-based
# ASSAY CONDITIONS: peak current amplitude; maximal potentiation; read-out: GluN2B PCA Emax (%)
OBSERVABLE: Emax

# count of solved cases: 3
COMPOUND	OBSERVABLE	RESULT
C[C@H](CCC(C)(C)O)[C@H]1CC[C@H]2[C@@H]3CC[C@H]4C[C@@](C)(O)CC[C@]4(C)[C@H]3C(=O)C[C@]12C [Compound 1]	Emax	100 to 500%
C[C@H](CCC(C)(C)O)[C@H]1CC[C@H]2[C@@H]3CC=C4C[C@@H](O)CC[C@]4(C)[C@H]3C(=O)C[C@]12C [Compound 4]	Emax	100 to 500%
C[C@H](CCC(C)(C)O)[C@H]1CC[C@H]2[C@@H]3CC[C@H]4C[C@@H](O)CC[C@]4(C)[C@H]3C(=O)C[C@]12C [Compound 2]	Emax	< 100%

Next:
Emax reading for CC[C@]1(O)CC[C@@]2(C)C(=CC[C@H]3[C@@H]4CC[C@H]([C@H](C)CCC(C)(C)O)[C@@]4(C)CC(=O)[C@@H]32)C1 [Compound 5] : 100 to 500%

====

# MEASUREMENT TARGET: GluN2B glutamate receptors (Homo sapiens, UniProt Q05586+Q13224)
# TEST METHOD NOTES: Whole-cell patch clamp of mammalian cells (Ionworks Barracuda, IWB), NMDA potentiation (PAM), GluN2B
# ASSAY CONDITIONS: peak current amplitude; 8-point concentration-response; read-out: GluN2B PCA EC50
Catalogue of EC50 readings, one per entry.

CC[C@]1(O)CC[C@@]2(C)C(=CC[C@H]3[C@@H]4CC[C@H]([C@H](C)CCC(C)(C)O)[C@@]4(C)CC(=O)[C@@H]32)C1 100 to 500 nM

Next:
EC50 reading for `C[C@H](CCC(C)(C)O)[C@H]1CC[C@H]2[C@@H]3CC[C@H]4C[C@@H](O)CC[C@]4(C)[C@H]3C(=O)C[C@]12C` : 500 to 1000 nM

====

# MEASUREMENT TARGET: GluN2B glutamate receptors (Homo sapiens, UniProt Q05586+Q13224)
# TEST METHOD NOTES: Whole-cell patch clamp of mammalian cells (Ionworks Barracuda, IWB), NMDA potentiation (PAM), GluN2B
# ASSAY CONDITIONS: peak current amplitude; 8-point concentration-response; read-out: GluN2B PCA EC50
pEC50: −log10 of the molar value.
Catalogue of pEC50 readings, one per entry.

COMPOUND	OBSERVABLE	RESULT
C[C@H](CCC(C)(C)O)[C@H]1CC[C@H]2[C@@H]3CC=C4C[C@@H](O)CC[C@]4(C)[C@H]3[C@@H](O)C[C@]12C [Compound 3]	pEC50	6.00 to 6.30

pEC50 reading for C[C@H](CCC(C)(C)O)[C@H]1CC[C@H]2[C@@H]3CC=C4C[C@@H](O)CC[C@]4(C)[C@H]3C(=O)C[C@]12C [Compound 4] : 6.30 to 7.00

pEC50 reading for CC[C@]1(O)CC[C@@]2(C)C(=CC[C@H]3[C@@H]4CC[C@H]([C@H](C)CC[C@H](O)C(C)(C)C)[C@@]4(C)CC(=O)[C@@H]32)C1 [Compound 9] : 7.00 to 9.00

pEC50 reading for CC[C@]1(O)CC[C@@]2(C)C(=CC[C@H]3[C@@H]4CC[C@H]([C@H](C)CC[C@@H](O)C(C)C)[C@@]4(C)CC(=O)[C@@H]32)C1 [Compound 6] : 7.00 to 9.00

pEC50 reading for C[C@H](CCC(C)(C)O)[C@H]1CC[C@H]2[C@@H]3CC[C@H]4C[C@@](C)(O)CC[C@]4(C)[C@H]3C(=O)C[C@]12C [Compound 1] : 6.00 to 6.30
